Assay info: NCI Yeast Anticancer Drug Screen. Data for the sgs1 mgt1 strain (AID 161)
Condition details: S. cerevisiae sgs1 mgt1 strain, at 50.0 µM, stronger effect = higher value
The panel holds about 79,000 compounds, 15% with a hit somewhere; the sample as a whole holds those more often.
Respond with MET for growth inhibition values of 70% and above, NOT MET for values below.

# check: growth inhibition of NCCNC[Si](c1ccccc1)(c1ccccc1)c1ccccc1 is greater than or equal to 70% NOT MET

# check: growth inhibition of COc1cccc2c1C(=O)c1c(O)c3c(c(O)c1C2=O)CC(O)(C(C)=O)CC3OC1CC(NCC2(O)OCC(O)C(O)C2O)C(O)C(C)O1 (stereo not given) is greater than or equal to 70% MET
